From: paper PMC7156458

assaySystem: Aβ42 (Homo sapiens, UniProt P05067)
Sequence (P05067 672-713): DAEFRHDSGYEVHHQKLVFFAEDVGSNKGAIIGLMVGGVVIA
experimentSummary: Th-T (thioflavin-T) assay of Aβ42 aggregation
Format: biochemical
cond: reading M23; Supplementary Fig. 47 source data
measurementKind: Th-T fluorescence, mean of three wells
Numbers only.

Previously resolved entries follow.
compound: C=C1CCC2C(C)(CCC=C(C)C)C(=O)CCC2(C)C1Cc1c(O)c(C)c(C)oc1=O (centres unmarked) [Compound 8]
assaySystem: Aβ42 (Homo sapiens, UniProt P05067)
Th-T fluorescence, mean of three wells: 1.891
--
compound: C=C1CC[C@H]2[C@]3(C)C[C@@H](C=C(C)C)O[C@H]3CC[C@]2(C)[C@@H]1Cc1c(O)c(C)c(C)oc1=O [Compound 5, subglutinol A]
assaySystem: Aβ42 (Homo sapiens, UniProt P05067)
Th-T fluorescence, mean of three wells: 2.384
--
compound: C=C1CC[C@@H]2[C@](C)(CC[C@H]3O[C@H](C=C(C)C)C[C@@]23C)[C@@H]1Cc1c(O)c(C)c(C)oc1=O [Compound 10, higginsianin A]
assaySystem: Aβ42 (Homo sapiens, UniProt P05067)
Th-T fluorescence, mean of three wells: 2.723
--
compound: C=C1CCC2C(C)(CC(=O)C=C(C)C)C(O)CCC2(C)C1Cc1c(O)c(C)c(C)oc1=O (centres unmarked) [Compound 7]
assaySystem: Aβ42 (Homo sapiens, UniProt P05067)
Th-T fluorescence, mean of three wells: 2.518
--
compound: C=C1CC[C@H]2[C@]3(C)C[C@H](C=C(C)C)O[C@H]3CC[C@]2(C)[C@@H]1Cc1c(OC)oc(C)c(C)c1=O [Compound 24]
assaySystem: Aβ42 (Homo sapiens, UniProt P05067)
Th-T fluorescence, mean of three wells: 3.884

Hi! Can you tell me Th-T fluorescence, mean of three wells for each of these compounds?
1. C=C1CC[C@H]2[C@]3(C)C[C@H](C=C(C)C)O[C@H]3CC[C@]2(C)[C@@H]1Cc1c(O)c(C)c(C)oc1=O [Compound 6, subglutinol B]
2. CC(C)=CCC/C(C)=C/CC/C(C)=C/CC/C(C)=C/Cc1c(O)c(C)c(C)oc1=O [Compound 2]
3. C=C1CCC2C3(C)CC(C=C(C)C)OC3CCC2(C)C1Cc1c(OC)oc(C)c(C)c1=O (centres unmarked) [Compound 23]

-- reply
1: 2.7089; 2: 2.641; 3: 3.558
